Entries and their measured IC50, blocking PDGF-BB (250 pM) activation, SRE-luciferase follow.
molecular target: full length human PDGFR-beta on HEK293 cells (human, UniProt P09619 33-1106); assay: cell-based or functional assay
Sequence (P09619 33-1106 limits assumed): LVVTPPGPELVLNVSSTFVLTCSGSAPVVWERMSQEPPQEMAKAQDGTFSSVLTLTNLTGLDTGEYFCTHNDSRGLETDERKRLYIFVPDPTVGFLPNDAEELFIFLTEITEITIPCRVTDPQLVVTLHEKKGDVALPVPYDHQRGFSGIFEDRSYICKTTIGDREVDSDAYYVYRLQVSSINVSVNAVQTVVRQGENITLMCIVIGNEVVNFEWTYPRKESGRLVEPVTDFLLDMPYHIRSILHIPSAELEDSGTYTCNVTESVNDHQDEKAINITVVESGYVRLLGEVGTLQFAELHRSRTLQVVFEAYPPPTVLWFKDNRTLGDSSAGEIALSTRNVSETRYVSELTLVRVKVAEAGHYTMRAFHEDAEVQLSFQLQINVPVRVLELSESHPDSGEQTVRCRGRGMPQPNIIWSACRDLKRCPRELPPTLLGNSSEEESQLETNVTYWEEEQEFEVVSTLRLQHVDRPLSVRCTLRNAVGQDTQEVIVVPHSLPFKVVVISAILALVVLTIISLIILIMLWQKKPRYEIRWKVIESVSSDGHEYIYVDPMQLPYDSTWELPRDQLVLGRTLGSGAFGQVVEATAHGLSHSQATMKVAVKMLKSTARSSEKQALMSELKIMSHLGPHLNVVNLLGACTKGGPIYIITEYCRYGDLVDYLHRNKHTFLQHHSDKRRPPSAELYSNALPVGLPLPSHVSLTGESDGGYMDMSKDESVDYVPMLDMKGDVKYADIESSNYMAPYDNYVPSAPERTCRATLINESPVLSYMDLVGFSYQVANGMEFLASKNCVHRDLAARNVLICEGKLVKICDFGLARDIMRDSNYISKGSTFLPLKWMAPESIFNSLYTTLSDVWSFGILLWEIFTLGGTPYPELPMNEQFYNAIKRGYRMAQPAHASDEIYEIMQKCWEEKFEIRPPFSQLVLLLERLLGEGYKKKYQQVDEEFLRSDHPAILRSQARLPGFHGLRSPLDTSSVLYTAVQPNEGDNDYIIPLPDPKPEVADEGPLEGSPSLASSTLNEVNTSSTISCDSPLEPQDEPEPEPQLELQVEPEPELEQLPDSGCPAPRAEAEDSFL
Field format: number, assumed M, no unit text.

The recorded IC50, blocking PDGF-BB (250 pM) activation, SRE-luciferase for H4H3102S (antibody, human IgG4, V domains shown, human IgG4 Fc (H4H prefix)) VH: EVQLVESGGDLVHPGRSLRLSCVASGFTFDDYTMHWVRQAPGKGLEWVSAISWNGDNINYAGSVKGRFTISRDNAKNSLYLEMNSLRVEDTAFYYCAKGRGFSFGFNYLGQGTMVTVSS VL: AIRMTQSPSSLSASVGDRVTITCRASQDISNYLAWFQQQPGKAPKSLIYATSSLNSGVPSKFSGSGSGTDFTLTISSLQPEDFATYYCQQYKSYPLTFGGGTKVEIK is 4.1e-09

Shifting focus to the binder that follows.
For record H4H3103S (antibody, human IgG4, V domains shown, human IgG4 Fc (H4H prefix)) VH: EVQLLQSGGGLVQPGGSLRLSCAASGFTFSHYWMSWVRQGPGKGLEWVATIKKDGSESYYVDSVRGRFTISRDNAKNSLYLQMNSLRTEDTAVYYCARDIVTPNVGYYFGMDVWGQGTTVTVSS VL: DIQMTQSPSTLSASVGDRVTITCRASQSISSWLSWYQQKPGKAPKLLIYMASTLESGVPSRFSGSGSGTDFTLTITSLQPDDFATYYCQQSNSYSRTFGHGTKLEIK the listed IC50, blocking PDGF-BB (250 pM) activation, SRE-luciferase is 2e-10
